target: Estrogen receptor (Homo sapiens) (UniProt Q92731+P03372); assay: RBA ratio between ERalpha and ERbeta; type: protein assay
Sequence (Q92731 whole entry, looked up, one chain of several): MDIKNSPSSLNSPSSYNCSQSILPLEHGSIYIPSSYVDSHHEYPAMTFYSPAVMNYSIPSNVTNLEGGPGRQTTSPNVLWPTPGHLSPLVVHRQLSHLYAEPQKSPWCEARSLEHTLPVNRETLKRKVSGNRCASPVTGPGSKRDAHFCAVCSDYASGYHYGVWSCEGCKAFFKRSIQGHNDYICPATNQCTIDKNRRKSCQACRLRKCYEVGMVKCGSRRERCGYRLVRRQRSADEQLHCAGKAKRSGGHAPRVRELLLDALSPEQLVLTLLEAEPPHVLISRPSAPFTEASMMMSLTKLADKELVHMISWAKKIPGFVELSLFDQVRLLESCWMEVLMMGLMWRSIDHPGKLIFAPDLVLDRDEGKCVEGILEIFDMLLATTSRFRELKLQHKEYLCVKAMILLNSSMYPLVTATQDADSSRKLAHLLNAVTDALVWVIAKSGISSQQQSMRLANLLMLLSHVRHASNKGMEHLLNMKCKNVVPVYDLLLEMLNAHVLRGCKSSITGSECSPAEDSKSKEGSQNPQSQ
Property Name: Ratio

>>> result_number("CCCCc1c(-c2ccc(O)cc2)nn(-c2ccc(O)cc2)c1-c1ccc(O)cc1")
77
>>> result_number("Cc1c(-c2ccc(O)cc2)nn(-c2ccccc2)c1-c1ccc(O)cc1")
2.7
>>> result_number("CCCCc1c(-c2ccc(O)cc2)nn(-c2ccccc2)c1-c1ccc(O)cc1")
19
>>> result_number("CCCc1c(-c2ccc(O)cc2)nn(-c2ccccc2)c1-c1ccc(O)cc1")
32
>>> result_number("CC(C)c1c(-c2ccc(O)cc2)nn(-c2ccccc2)c1-c1ccc(O)cc1")
6.5

[I] CCc1c(-c2ccc(O)cc2)nn(-c2ccccc2)c1-c1ccccc1
[II] CC(C)Cc1c(-c2ccc(O)cc2)nn(-c2ccccc2)c1-c1ccc(O)cc1
Exam item: Select one: I or II . Criterion: greater recorded Ratio. Write down the label of the entry you select.
Marked response: II

----------
target: Estrogen receptor (Homo sapiens) (UniProt Q92731+P03372); experiment: RBA ratio between ERalpha and ERbeta; type: protein assay
Property Name: Ratio

>>> result_number("CCc1c(-c2ccc(O)cc2)nn(-c2ccc(O)cc2)c1-c1ccc(O)cc1")
240

[P] CCc1c(-c2ccc(O)cc2)nn(-c2ccc(O)cc2)c1-c1ccccc1
[Q] CCc1c(-c2ccccc2)nn(-c2ccc(O)cc2)c1-c1ccccc1
[R] CC(C)Cc1c(-c2ccc(O)cc2)nn(-c2ccc(O)cc2)c1-c1ccc(O)cc1
Exam item: Sort the 3 compounds by Ratio; largest first, smallest last. Put the labels in the requested order and list them out.
Marked response: R, P, Q
(R: 84, P: 28, Q: 2.1)

----------
molecular target: Estrogen receptor (Homo sapiens); test: Relative binding affinity was determined for Estrogen receptor 1 using 10 nM [3H]-E2 as tracer (estradiol 100%)
Property Name: RBA

Example entries begin here.
>>> result_number("CCCCc1c(-c2ccc(O)cc2)nn(-c2ccccc2)c1-c1ccc(O)cc1")
8.7
>>> result_number("CCCc1c(-c2ccc(O)cc2)nn(-c2ccccc2)c1-c1ccc(O)cc1")
16.8
>>> result_number("CCc1c(-c2ccc(O)cc2)nn(-c2ccccc2)c1-c1ccccc1")
2.6
>>> result_number("CCc1c(-c2ccccc2)nn(-c2ccc(O)cc2)c1-c1ccc(O)cc1")
7
>>> result_number("CCc1c(-c2ccc(O)cc2)nn(-c2ccc(O)cc2)c1-c1ccc(O)cc1")
36

[1] CCc1c(-c2ccc(O)cc2)nn(-c2ccccc2)c1-c1ccc(O)cc1
[2] CCc1c(-c2ccc(O)cc2)nn(-c2ccc(O)cc2)c1-c1ccccc1
[3] CC(C)Cc1c(-c2ccc(O)cc2)nn(-c2ccc(O)cc2)c1-c1ccc(O)cc1
[4] CCCCc1c(-c2ccc(O)cc2)nn(-c2ccc(O)cc2)c1-c1ccc(O)cc1
[5] CC(C)c1c(-c2ccc(O)cc2)nn(-c2ccccc2)c1-c1ccc(O)cc1
Exam item: Put the compounds in ascending order of RBA. Put the labels in the requested order and list them out.
Marked response: 5, 2, 4, 1, 3
(5: 5.6, 2: 8.9, 4: 14, 1: 31, 3: 75)

----------
Target: Estrogen receptor (Homo sapiens)
Sequence (whole entry): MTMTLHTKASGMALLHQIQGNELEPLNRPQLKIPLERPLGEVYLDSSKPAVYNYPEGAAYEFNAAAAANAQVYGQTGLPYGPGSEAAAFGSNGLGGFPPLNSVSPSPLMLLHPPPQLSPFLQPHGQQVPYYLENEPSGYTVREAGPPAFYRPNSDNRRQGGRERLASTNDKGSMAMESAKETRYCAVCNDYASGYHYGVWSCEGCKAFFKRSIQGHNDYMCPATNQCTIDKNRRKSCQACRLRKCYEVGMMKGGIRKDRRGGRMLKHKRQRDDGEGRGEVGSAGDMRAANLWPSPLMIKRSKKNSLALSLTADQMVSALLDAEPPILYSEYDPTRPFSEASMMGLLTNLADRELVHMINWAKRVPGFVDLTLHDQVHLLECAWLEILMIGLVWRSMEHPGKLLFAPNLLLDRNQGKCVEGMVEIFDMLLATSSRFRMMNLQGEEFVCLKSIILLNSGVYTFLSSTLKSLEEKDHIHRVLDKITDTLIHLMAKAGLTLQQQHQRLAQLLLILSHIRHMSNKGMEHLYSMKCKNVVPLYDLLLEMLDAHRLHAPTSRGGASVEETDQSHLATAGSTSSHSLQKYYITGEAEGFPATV
Test: Relative binding affinity was determined for Estrogen receptor 1 using 10 nM [3H]-E2 as tracer (estradiol 100%)
Property Name: RBA

Example entries begin here.
>>> result_number("CCc1c(-c2ccccc2)nn(-c2ccc(O)cc2)c1-c1ccccc1")
3.1
>>> result_number("CC(C)Cc1c(-c2ccc(O)cc2)nn(-c2ccccc2)c1-c1ccc(O)cc1")
56
>>> result_number("CCc1c(-c2ccccc2)nn(-c2ccccc2)c1-c1ccc(O)cc1")
0.04

[1] CCCc1c(-c2ccc(O)cc2)nn(-c2ccc(O)cc2)c1-c1ccc(O)cc1
[2] Cc1c(-c2ccc(O)cc2)nn(-c2ccccc2)c1-c1ccc(O)cc1
Exam item: Looking at 1 and 2 , which one comes out lower in RBA terms? Write down the label of the entry you select.
Marked response: 2

----------
target: Estrogen receptor (Homo sapiens) (UniProt Q92731+P03372); test: RBA ratio between ERalpha and ERbeta; assay type: protein assay
Property Name: Ratio

[I] CCc1c(-c2ccccc2)nn(-c2ccccc2)c1-c1ccc(O)cc1
[II] CCc1c(-c2ccc(O)cc2)nn(-c2ccccc2)c1-c1ccc(O)cc1
[III] CCc1c(-c2ccccc2)nn(-c2ccc(O)cc2)c1-c1ccc(O)cc1
Exam item: Descending sort on Ratio required. Put the labels in the requested order and list them out.
Marked response: II, III, I
(II: 28, III: 9, I: 0.67)
